Test system: Escherichia coli TOP10;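 also: peptides expressed intracellularly from a pBAD plasmid library in pooled LB shake-flask culture, induced with 0.3% L-arabinose, DNA abundance read by NGS, three biological replicates, DESeq2 with apeglm shrinkage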
test_description: shrunken log2 fold change of peptide-encoding DNA abundance (4.5 h post-induction vs induction); higher = less antimicrobial activity (less host growth inhibition)
stated_conditions: time post-induction: 4.5 h; library: site-saturation at positions 5, 18, 19, 20
Note: every record was labeled by where its shrunken log2 fold change sits among label 0 = under -0.06, label 1 = from -0.06 up to 0.09, label 2 = 0.09 and over

{"sequence_input": "RRIRWRPPRLPRPRPRPVVEPRP", "label": "label 1"}
{"sequence_input": "RRIRPRPPRLPRPRPRPIILPRP", "label": "label 0"}
{"sequence_input": "RRIRTRPPRLPRPRPRPARGPRP", "label": "label 2"}
{"sequence_input": "RRIRVRPPRLPRPRPRPVHVPRP", "label": "label 1"}
{"sequence_input": "RRIRWRPPRLPRPRPRPMSQPRP", "label": "label 1"}
{"sequence_input": "RRIRPRPPRLPRPRPRPIYEPRP", "label": "label 0"}
{"sequence_input": "RRIRTRPPRLPRPRPRPKCKPRP", "label": "label 1"}
{"sequence_input": "RRIRPRPPRLPRPRPRPECWPRP", "label": "label 2"}
{"sequence_input": "RRIRARPPRLPRPRPRPTVIPRP", "label": "label 1"}
{"sequence_input": "RRIRGRPPRLPRPRPRPCRAPRP", "label": "label 2"}
{"sequence_input": "RRIRERPPRLPRPRPRPWGRPRP", "label": "label 2"}
{"sequence_input": "RRIRERPPRLPRPRPRPPLDPRP", "label": "label 1"}
{"sequence_input": "RRIRIRPPRLPRPRPRPCKQPRP", "label": "label 1"}
{"sequence_input": "RRIRFRPPRLPRPRPRPLMKPRP", "label": "label 0"}
{"sequence_input": "RRIRNRPPRLPRPRPRPDGSPRP", "label": "label 1"}
{"sequence_input": "RRIRHRPPRLPRPRPRPKPVPRP", "label": "label 2"}
{"sequence_input": "RRIRHRPPRLPRPRPRPVHTPRP", "label": "label 0"}
{"sequence_input": "RRIRPRPPRLPRPRPRPRKNPRP", "label": "label 2"}
{"sequence_input": "RRIRSRPPRLPRPRPRPTIDPRP", "label": "label 1"}
{"sequence_input": "RRIRYRPPRLPRPRPRPWYAPRP", "label": "label 0"}
{"sequence_input": "RRIRTRPPRLPRPRPRPHSWPRP", "label": "label 1"}
{"sequence_input": "RRIRSRPPRLPRPRPRPTTGPRP", "label": "label 1"}
{"sequence_input": "RRIRTRPPRLPRPRPRPPVTPRP", "label": "label 2"}
{"sequence_input": "RRIRNRPPRLPRPRPRPRETPRP", "label": "label 1"}
{"sequence_input": "RRIRMRPPRLPRPRPRPRDHPRP", "label": "label 2"}
{"sequence_input": "RRIRTRPPRLPRPRPRPESPPRP", "label": "label 2"}
{"sequence_input": "RRIRSRPPRLPRPRPRPIHKPRP", "label": "label 0"}
{"sequence_input": "RRIRHRPPRLPRPRPRPYTHPRP", "label": "label 0"}
{"sequence_input": "RRIRWRPPRLPRPRPRPWKIPRP", "label": "label 0"}
{"sequence_input": "RRIRYRPPRLPRPRPRPWFVPRP", "label": "label 0"}
{"sequence_input": "RRIRVRPPRLPRPRPRPENHPRP", "label": "label 0"}
{"sequence_input": "RRIRMRPPRLPRPRPRPYRYPRP", "label": "label 0"}
{"sequence_input": "RRIRQRPPRLPRPRPRPHSFPRP", "label": "label 1"}
{"sequence_input": "RRIRRRPPRLPRPRPRPSMKPRP", "label": "label 0"}
{"sequence_input": "RRIRARPPRLPRPRPRPFHNPRP", "label": "label 0"}
{"sequence_input": "RRIRCRPPRLPRPRPRPFLLPRP", "label": "label 0"}
{"sequence_input": "RRIRNRPPRLPRPRPRPTSVPRP", "label": "label 2"}
{"sequence_input": "RRIRTRPPRLPRPRPRPCGSPRP", "label": "label 1"}
{"sequence_input": "RRIRYRPPRLPRPRPRPCCGPRP", "label": "label 0"}
{"sequence_input": "RRIRLRPPRLPRPRPRPHSIPRP", "label": "label 0"}
{"sequence_input": "RRIRNRPPRLPRPRPRPLWFPRP", "label": "label 1"}
{"sequence_input": "RRIRERPPRLPRPRPRPKNRPRP", "label": "label 2"}
{"sequence_input": "RRIRRRPPRLPRPRPRPDRMPRP", "label": "label 1"}
{"sequence_input": "RRIRERPPRLPRPRPRPLWFPRP", "label": "label 2"}
{"sequence_input": "RRIRYRPPRLPRPRPRPMGIPRP", "label": "label 1"}
{"sequence_input": "RRIRKRPPRLPRPRPRPPIQPRP", "label": "label 2"}
{"sequence_input": "RRIRQRPPRLPRPRPRPMKGPRP", "label": "label 1"}
{"sequence_input": "RRIRHRPPRLPRPRPRPYQTPRP", "label": "label 0"}
{"sequence_input": "RRIRARPPRLPRPRPRPTLAPRP", "label": "label 2"}
{"sequence_input": "RRIRHRPPRLPRPRPRPFVSPRP", "label": "label 0"}
{"sequence_input": "RRIRNRPPRLPRPRPRPKHPPRP", "label": "label 2"}
{"sequence_input": "RRIRVRPPRLPRPRPRPNEGPRP", "label": "label 1"}
{"sequence_input": "RRIRGRPPRLPRPRPRPIFTPRP", "label": "label 2"}
{"sequence_input": "RRIRTRPPRLPRPRPRPQRWPRP", "label": "label 2"}
{"sequence_input": "RRIRGRPPRLPRPRPRPPCEPRP", "label": "label 2"}
{"sequence_input": "RRIRSRPPRLPRPRPRPLHDPRP", "label": "label 1"}
{"sequence_input": "RRIRPRPPRLPRPRPRPEMQPRP", "label": "label 2"}
{"sequence_input": "RRIRRRPPRLPRPRPRPYCLPRP", "label": "label 0"}
{"sequence_input": "RRIRARPPRLPRPRPRPIITPRP", "label": "label 0"}
{"sequence_input": "RRIRMRPPRLPRPRPRPQQYPRP", "label": "label 1"}
{"sequence_input": "RRIRSRPPRLPRPRPRPKCFPRP", "label": "label 2"}
{"sequence_input": "RRIRIRPPRLPRPRPRPYRLPRP", "label": "label 1"}
